target: Acyl-protein thioesterase 2 (Homo sapiens) (UniProt O95372); experiment: selectivity of LYPLA1/LYPLA2 inhibition – cell lysate, gel-based ABPP, fluorescence, HEK293T proteome, powder samples, selectivity assay for LYPLA1/LYPLA2 inhibitor project, late-stage follow-up (AID 651988); details: HEK293T soluble proteome, FP-PEG-Rh fluorescence, LYPLA2, at 10 µM
Sequence (O95372 whole entry, looked up): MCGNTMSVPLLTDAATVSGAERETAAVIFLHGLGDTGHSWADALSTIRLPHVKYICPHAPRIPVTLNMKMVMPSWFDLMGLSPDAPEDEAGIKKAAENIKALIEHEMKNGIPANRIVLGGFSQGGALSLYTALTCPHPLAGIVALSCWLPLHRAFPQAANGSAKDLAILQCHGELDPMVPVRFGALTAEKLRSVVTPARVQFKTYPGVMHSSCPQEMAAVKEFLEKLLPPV
Active and inactive are the calls of the source.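 The calls were made as follows: active = inhibition of 50% or more at 300 nM in exactly one of the two enzyme panels, LYPLA1 or LYPLA2; inactive = under 50% in both panels, or reaching 50% in both.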
Classes to choose from: yes (active), no (inactive)

Would you mind telling me which call this test gave CC1CCc2c(sc(NC(=O)CN3CCN(C(=O)c4ccco4)CC3)c2C#N)C1 (stereo unspecified) ?
no

Would you mind telling me which call this test gave "O=C(c1cc2c(s1)-c1ccccc1S(=O)(=O)C2)N1CCN(c2cccc(Cl)c2)CC1" ?
no

Would you mind telling me which call this test gave "O=C(CN1CCN(C(=O)c2ccco2)CC1)Nc1cc(Cl)ccc1Cl" ?
no

Would you mind telling me which call this test gave "COc1ccc(N2CCN(C(=O)c3cc4c(s3)-c3ccccc3S(=O)(=O)C4)CC2)cc1" ?
yes

Would you mind telling me which call this test gave Cc1nnsc1C(=O)N1CCCC(N2CCN(c3cccc(C(F)(F)F)c3)CC2)C1 (stereo unspecified) ?
no

Would you mind telling me which call this test gave "O=C(CN1CCN(C(=O)c2ccco2)CC1)Nc1ccc(Cl)cc1Cl" ?
no

###

Field: inhibition. Provide a value for each of the compounds that follow.
biological target: Acyl-protein thioesterase 2 (Homo sapiens); assay: selectivity of LYPLA1/LYPLA2 inhibition – cell lysate, gel-based ABPP, fluorescence, HEK293T proteome, powder samples, selectivity assay for LYPLA1/LYPLA2 inhibitor project, late-stage follow-up (AID 651988); settings: HEK293T soluble proteome, FP-PEG-Rh fluorescence, LYPLA2, at 10 µM, stronger effect = higher value
Just the number in %, nothing appended.

Entry "O=C(c1cc2c(s1)-c1ccccc1S(=O)(=O)C2)N1CCN(c2ccc(Cl)cc2)CC1" : reported inhibition = ?
100

Entry "CCOC(=O)N1CCN(C(=O)c2cc3c(s2)-c2ccc(Cl)cc2S(=O)(=O)C3)CC1" : reported inhibition = ?
0

Entry "O=C(c1ccco1)N1CCN(C(=S)Nc2cccc([N+](=O)[O-])c2)CC1" : reported inhibition = ?
0

Entry "O=C(c1cc2c(s1)-c1ccccc1S(=O)(=O)C2)N1CCN(Cc2ccccc2)CC1" : reported inhibition = ?
50

Entry "O=C(CN1CCN(C(=O)c2ccco2)CC1)Nc1cc(C(F)(F)F)ccc1Cl" : reported inhibition = ?
25

Entry "O=C(c1cc2c(s1)-c1ccccc1S(=O)(=O)C2)N1CCN(c2ccccc2)CC1" : reported inhibition = ?
75

Entry "O=C(Nc1ccc(N2CCN(C(=O)c3ccco3)CC2)c(Cl)c1)c1c(F)c(F)c(F)c(F)c1F" : reported inhibition = ?
50

Entry "O=C(CN1CCN(C(=O)c2ccccc2)CC1)Nc1cc(S(=O)(=O)N2CCCC2)ccc1Cl" : reported inhibition = ?
0

Entry "O=C(COc1ccc(Cl)cc1)N1CCN(c2cccc(C(F)(F)F)c2)CC1" : reported inhibition = ?
0

Entry "O=C(CN1CCN(C(=O)c2ccco2)CC1)Nc1ccc(Br)cc1Cl" : reported inhibition = ?
50

Entry "O=C(CN1CCN(C(=O)c2ccco2)CC1)Nc1cccc(Cl)c1Cl" : reported inhibition = ?
0

Entry "O=C(c1cc2c(s1)-c1ccc(Cl)cc1S(=O)(=O)C2)N1CCN(c2ncccn2)CC1" : reported inhibition = ?
75

Entry "COc1ccc(N2CCN(C(=O)c3ccc(C(C)(C)C)cc3)CC2)cc1" : reported inhibition = ?
75

Entry "O=C(c1cc2c(s1)-c1ccccc1S(=O)(=O)C2)N1CCN(C2CCCCC2)CC1" : reported inhibition = ?
25

Entry "O=C(c1cc2c(s1)-c1ccc(Cl)cc1S(=O)(=O)C2)N1CCN(C2CCCCC2)CC1" : reported inhibition = ?
75

Entry "O=C(c1ccco1)N1CCN(C(=S)Nc2ccc(F)c(Cl)c2)CC1" : reported inhibition = ?
50

Entry "COc1ccc(N2CCN(C(=O)c3cc4c(s3)CCCCC4)CC2)cc1" : reported inhibition = ?
100

Entry "COc1ccccc1N1CCN(C(=O)c2cc3c(s2)-c2ccccc2S(=O)(=O)C3)CC1" : reported inhibition = ?
0

Entry CC(C(=O)Nc1cccc(C(F)(F)F)c1)N1CCN(C(=O)c2ccco2)CC1 (stereo not given) : reported inhibition = ?
0

Entry "O=C(c1cc2c(s1)-c1ccc(Cl)cc1S(=O)(=O)C2)N1CCN(c2ccccn2)CC1" : reported inhibition = ?
0
